Test system: grafted B16 F0 murine melanoma tumour
Experiment: Biodistribution of the ^125I-labelled molecules in the melanoma-bearing mouse (autoradiography of whole-body sections)
Details: 24 H after i.v. administration, ^125I-labelled compound
Structures can show the parent of a compound that is named as a salt.
Param threshold (7 % ID/g) applies to Concentration of radioactivity, B 16 (tumour), Mean; output condition met when value >= threshold, condition not met when value < threshold.

Solved entries (count: 4):
Query: Please check the record CCN(CC)CCNC(=O)c1cc2c(I)cccc2s1.Cl and state if its Concentration of radioactivity, B 16 (tumour), Mean is at or above 7 % ID/g.
Reply: condition met

Query: Please check the record CCN(CC)CCNC(=O)c1ccc2cc(I)ccc2n1.Cl.Cl and state if its Concentration of radioactivity, B 16 (tumour), Mean is at or above 7 % ID/g.
Reply: condition met

Query: Please check the record CCN(CC)CCNC(=O)c1cc2cc(I)ccc2[nH]1 [compound 10, hydrochloride] and state if its Concentration of radioactivity, B 16 (tumour), Mean is at or above 7 % ID/g.
Reply: condition met

Query: Please check the record CCN(CC)CCNC(=O)c1nc2ccccn2c1I [compound 16, dihydrochloride] and state if its Concentration of radioactivity, B 16 (tumour), Mean is at or above 7 % ID/g.
Reply: condition not met

Could you now look at the following molecule, please?
Query: Please check the record CCN(CC)CCNC(=O)c1ccc(I)nc1 [compound 7, dihydrochloride] and state if its Concentration of radioactivity, B 16 (tumour), Mean is at or above 7 % ID/g.
Reply: condition not met
